Attribution: patent US7211587B2

# target entity: human KDR (Homo sapiens, UniProt P35968)
# Sequence (P35968 20-1356): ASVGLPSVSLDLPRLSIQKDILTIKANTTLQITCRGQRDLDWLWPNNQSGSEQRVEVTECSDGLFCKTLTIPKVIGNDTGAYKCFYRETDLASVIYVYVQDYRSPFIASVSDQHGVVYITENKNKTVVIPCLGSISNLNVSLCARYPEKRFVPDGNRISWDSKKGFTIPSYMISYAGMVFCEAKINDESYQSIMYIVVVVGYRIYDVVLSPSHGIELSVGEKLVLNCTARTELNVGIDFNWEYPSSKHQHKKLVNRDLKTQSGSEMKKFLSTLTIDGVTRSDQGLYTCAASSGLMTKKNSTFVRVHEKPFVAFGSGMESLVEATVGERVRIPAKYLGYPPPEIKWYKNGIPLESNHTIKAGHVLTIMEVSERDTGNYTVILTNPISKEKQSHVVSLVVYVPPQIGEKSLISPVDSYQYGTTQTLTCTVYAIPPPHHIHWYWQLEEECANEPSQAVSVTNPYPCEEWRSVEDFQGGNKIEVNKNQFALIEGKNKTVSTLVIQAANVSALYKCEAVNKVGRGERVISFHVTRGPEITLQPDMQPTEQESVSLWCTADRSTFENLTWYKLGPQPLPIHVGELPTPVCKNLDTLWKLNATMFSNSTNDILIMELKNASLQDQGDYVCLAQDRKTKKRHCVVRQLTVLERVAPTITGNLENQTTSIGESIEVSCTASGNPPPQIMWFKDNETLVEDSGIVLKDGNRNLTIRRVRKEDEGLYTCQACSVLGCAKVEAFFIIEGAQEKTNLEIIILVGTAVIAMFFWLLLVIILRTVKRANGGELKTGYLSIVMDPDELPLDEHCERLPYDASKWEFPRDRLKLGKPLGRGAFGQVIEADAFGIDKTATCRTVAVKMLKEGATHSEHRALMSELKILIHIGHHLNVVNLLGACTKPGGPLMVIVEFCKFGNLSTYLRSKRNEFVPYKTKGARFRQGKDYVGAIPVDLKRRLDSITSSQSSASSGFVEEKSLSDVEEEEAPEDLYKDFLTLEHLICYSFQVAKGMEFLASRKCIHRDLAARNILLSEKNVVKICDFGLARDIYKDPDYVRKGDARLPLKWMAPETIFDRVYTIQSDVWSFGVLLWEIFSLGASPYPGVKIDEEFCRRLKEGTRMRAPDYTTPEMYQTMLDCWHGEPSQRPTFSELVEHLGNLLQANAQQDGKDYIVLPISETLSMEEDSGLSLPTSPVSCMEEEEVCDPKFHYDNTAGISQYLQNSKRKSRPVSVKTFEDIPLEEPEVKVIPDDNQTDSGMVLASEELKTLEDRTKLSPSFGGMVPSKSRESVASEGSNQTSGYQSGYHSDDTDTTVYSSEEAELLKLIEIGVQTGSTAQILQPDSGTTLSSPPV
# test details: Inhibitory activity against KDR phosphorylation by ELISA (VEGF-stimulated NIH 3T3 cells expressing human KDR)
# applied conditions: VEGF 100 ng/ml, compound 1 hr, read-out: IC50 (inhibition of KDR phosphorylation)
measured attribute: pIC50
The value called pIC50 is obtained by taking minus log10 of the concentration in mol/L.

Example cases with answers are listed next.
COc1cc2nccc(Oc3ccc(NC(=O)Nc4nc(C)c(C)s4)c(Cl)c3)c2cc1OC [Ex. 24]; 9.00
COc1cc2nccc(Oc3ccc(NC(=O)Nc4nnc(C(F)(F)F)s4)cc3Cl)c2cc1OC [Ex. 73]; 7.68
COc1cc2nccc(Oc3cc(C)c(NC(=O)Nc4nnc(C5CC5)s4)cc3C)c2cc1OC [Ex. 69]; 8.39
COc1cc2nccc(Oc3ccc(NC(=O)Nc4cc(C)on4)c(F)c3)c2cc1OC [Ex. 9]; 9.70
CCSc1nnc(NC(=O)Nc2ccc(Oc3ccnc4cc(OC)c(OC)cc34)c(C)c2C)s1 [Ex. 71]; 8.51

Q) Look up pIC50 for this compound: COc1cc2nccc(Oc3ccc(NC(=O)Nc4ccn[nH]4)c(F)c3)c2cc1OC [Ex. 20]
A) 8.38

Q) # repeat for COc1cc2ncnc(Oc3ccc(NC(=O)Nc4nc(C)cs4)cc3)c2cc1OC [Ex. 44]
A) 8.96

Q) Also COc1cc2ncnc(Oc3ccc(NC(=O)Nc4cc(C)ns4)cc3Cl)c2cc1OC [Ex. 18] , if possible.
A) 7.16

Q) Next compound up: COc1cc2ncnc(Oc3ccc(NC(=O)Nc4nccs4)cc3)c2cc1OC [Ex. 42]
A) 8.33

----------
# target entity: human KDR (Homo sapiens)
# test details: Inhibitory activity against KDR phosphorylation by ELISA (VEGF-stimulated NIH 3T3 cells expressing human KDR)
# applied conditions: VEGF 100 ng/ml, compound 1 hr, read-out: IC50 (inhibition of KDR phosphorylation)
measured attribute: IC50 (nM)
Report as a plain number; the unit nM is understood.

Example entries begin here.
COc1cc2ncnc(Oc3ccc(NC(=O)Nc4ncc(C)s4)cc3Cl)c2cc1OC; 2.8
CCc1nnc(NC(=O)Nc2ccc(Oc3ccnc4cc(OC)c(OC)cc34)c(Cl)c2)s1; 3.7
COc1cc2nccc(Oc3ccc(NC(=O)Nc4ncc(Cl)s4)c(F)c3)c2cc1OC; 1.9
COc1cc2nccc(Oc3ccc(NC(=O)Nc4ccn[nH]4)cc3Cl)c2cc1OC; 17.5

Q) Give the measured IC50 of COc1cc2nccc(Oc3ccc(NC(=O)Nc4nnc(C5CC5)s4)cc3Cl)c2cc1OC .
A) 18

----------
Overview of recorded inhibition in vivo at 20 mg/kg for various compounds
# Tested on: Human pulmonary carcinoma cells (LC-6)
# test details: Antitumor activity against human pulmonary carcinoma cells (LC-6) transplanted into nude mice
# Type: in vivo
# applied conditions: Mus musculus, 216 h; LC-6 in nude mice, oral 20 mg/kg once a day for 9 days; read-out: TGIR (tumor growth inhibition rate)
I only need the number, in %, no unit after it.

Q) What measured inhibition in vivo at 20 mg/kg is associated with COc1cc2nccc(Oc3ccc(NC(=O)Nc4cc(C)no4)c(F)c3)c2cc1OC [Ex. 6] on Human pulmonary carcinoma cells (LC-6)?
A) 29.3

Q) Request: COc1cc2nccc(Oc3ccc(NC(=O)Nc4nc(C)c(C)s4)cc3Cl)c2cc1OC [Ex. 25]
A) 18.8

Q) Then this compound: COc1cc2ncnc(Oc3ccc(NC(=O)Nc4nc(C)c(C)s4)c(Cl)c3)c2cc1OC [Ex. 40]
A) 34.2

Q) Similarly, COc1cc2nccc(Oc3ccc(NC(=O)Nc4cc(C)on4)c(Cl)c3)c2cc1OC [Ex. 4] ?
A) 55.4

Q) Now the same for COc1cc2nccc(Oc3ccc(NC(=O)Nc4nnc(C)s4)c(F)c3)c2cc1OC [Ex. 58]
A) 13.4
